Entry source: the Deep4Chem optical property database

Test: solvent given as SMILES
Settings: in Cc1ccccc1
Recorded emission maximum values for a group of compounds are listed next.
Please respond with the number in nm and leave the unit unwritten.

[
  {
    "smiles-string": "COc1cc2c3c(c4cc(OC)c(OC)c(OC)c4c2c(OC)c1OC)=[N+]1C(=C(c2c(C)cc(C)cc2C)c2cc4c5cc(OC)c(OC)c(OC)c5c5c(OC)c(OC)c(OC)cc5c4n2[B-]1(F)F)C=3",
    "unit-tag": "nm",
    "numeric-value": 767
  }
]

## Task Suppose we examine the compound CC1(C)c2ccccc2N(c2ccc3c(c2)Oc2ccccc2S3(=O)=O)c2ccccc21 ; what emission maximum value has been reported?
## Result 451

## Task Try this compound too: CC1=CC(C)=[N+]2C1=C(c1c3ccccc3c(-c3ccccc3)c3ccccc13)c1c(C)cc(C)n1[B-]2(F)F
## Result 519

## Task Try this compound too: F[B-]1(F)N2C(=Nc3cccc4cccc2c34)c2cccc[n+]21
## Result 384

## Task Try this compound too: Cc1ccc2c(c1)c1cc(C)ccc1n2-c1c(C#N)c(-n2c3ccc(C)cc3c3cc(C)ccc32)c(-n2c3ccc(C)cc3c3cc(C)ccc32)c(C#N)c1-n1c2ccc(C)cc2c2cc(C)ccc21
## Result 561

* * *

Assay: solvent given as SMILES
Conditions: in Cc1ccccc1
hey, just use y if measured emission maximum is less than 500 nm, otherwise n

These solved cases illustrate the format of a correct answer.
[
  {
    "smiles-string": "COc1cccc(C2=c3c(c4ccc(C(C)(C)C)cc4c4cc(C(C)(C)C)ccc34)=[N+]3C2=C(c2ccccc2)c2c(-c4cccc(OC)c4)c4c5ccc(C(C)(C)C)cc5c5cc(C(C)(C)C)ccc5c4n2[B-]3(F)F)c1",
    "answer-label": "n"
  },
  {
    "smiles-string": "CCOc1ccc(/C=C/C=C/C=C/c2ccc([N+](=O)[O-])cc2)cc1",
    "answer-label": "n"
  },
  {
    "smiles-string": "COc1ccc(/C=C/c2cc(/C=C/c3ccc(N(c4ccccc4)c4ccccc4)cc3)nc(/C=C/c3ccc(N(C)C)cc3)n2)cc1",
    "answer-label": "y"
  },
  {
    "smiles-string": "CC1(C)c2ccccc2N(c2ccc(-c3cccc(C#N)c3)cc2)c2ccccc21",
    "answer-label": "y"
  },
  {
    "smiles-string": "COc1ccc(C2=CC3=C(c4c(C)cc(C)cc4C)c4cc(-c5ccc(OC)cc5)c(-c5ccc(OC)cc5)n4[B-](F)(F)[N+]3=C2c2ccc(OC)cc2)cc1",
    "answer-label": "n"
  }
]

Moving on to the next compound.
## Task Does this compound meet the criterion emission maximum < 500 nm? N#Cc1ccccc1N1c2ccccc2C(c2ccccc2)(c2ccccc2)c2ccccc21
## Result y

* * *

Recorded emission maximum values for a group of compounds are listed next.
Experiment: solvent given as SMILES
Settings: in CO
Please respond with the number in nm and leave the unit unwritten.

## Task Suppose we examine the compound CN(C)CCCN1c2ccccc2Sc2ccc(Cl)cc21 ; what emission maximum value has been reported?
## Result 449

## Task Try this compound too: C(#Cc1ccc(-n2c3ccccc3c3ccccc32)cc1)c1ccccc1
## Result 401

## Task Try this compound too: CCCN1/C(=C/C=C/C=C/C2=[N+](CCC)c3ccccc3C2(C)C)C(C)(C)c2ccccc21
## Result 659

## Task Try this compound too: CC(=O)Nc1cc2ccc3cccc4ccc(c1)c2c34
## Result 387

## Task Try this compound too: Cc1cc(C)n2c1C=C1c3ccccc3C(c3c[nH]c4ccccc34)=[N+]1[B-]2(F)F
## Result 603

## Task Try this compound too: C(C#Cc1ccc2ccc3cccc4ccc1c2c34)#Cc1cccc2ccccc12
## Result 414

## Task Try this compound too: CCC[n+]1ccc(/C=C/c2ccc(N(C)C)cc2)cc1
## Result 579

## Task Try this compound too: O=c1c2ccccc2c2c3c(cccc13)c(-c1ccccc1)c1c3cccc4cccc(c43)c12
## Result 562

## Task Try this compound too: CCOC(=O)COc1ccc(C(c2c(C)[nH]c3ccccc23)c2c(C)[nH]c3ccccc23)cc1OC
## Result 345

## Task Try this compound too: COc1ccc2c(c1)CCc1c-2nc(N)c(C#N)c1-c1ccc(Br)cc1
## Result 418

## Task Try this compound too: F[B-]1(F)n2c(ccc2N2CCOCC2)C(c2ccccc2)=C2C=CC(N3CCOCC3)=[N+]21
## Result 594

## Task Try this compound too: COCCOc1cc(C=O)c(OCCOC)cc1C=O
## Result 466

## Task Try this compound too: CN(C)CCN(Cc1c2ccccc2cc2ccccc12)c1ccc([N+](=O)[O-])cc1
## Result 389

## Task Try this compound too: COC(=O)/C=C/c1ccc2ccc3cccc4ccc1c2c34
## Result 462.5

## Task Try this compound too: CN1C(=CC2=C([O-])C(=CC3=[N+](C)c4ccc(Cl)cc4C3(C)C)C2=O)C(C)(C)c2cc(Cl)ccc21
## Result 653

## Task Try this compound too: COC1=C/C(=C\C=C2C=CN(Cc3ccc(Br)cc3)C=C2)C=CC1=O
## Result 636

## Task Try this compound too: O=c1oc2c(ccc3ccccc32)nc1-c1ccccc1
## Result 511

## Task Try this compound too: Brc1cnc(-c2ccc(N(c3ccccc3)c3ccccc3)cc2)s1
## Result 493
